// read-out Ki, gathered for UniProt P00742 from published studies
API: value field is a number in µM; no unit string.

Please give the measured Ki for this compound: "O=C(O)CN1CCN(Cc2ccc3c(Cl)c(C(=O)Nc4ccc(Cl)cc4C(=O)Nc4ccc(Cl)cc4)sc3c2)CC1"
0.0095

Another compound to look at: "Cc1cc(OCC2CCN(C(=N)N)CC2)cc(OS(=O)(=O)c2ccccc2Cl)c1"
80

Subsequent entry: "COc1ccc(-n2nc(C(F)(F)F)c3c2C(=O)N(c2ccc(C4(C(=O)N5CCCC5)CC4)cc2)CC3)cc1"
0.169

Further, for "COc1ccc2ccc(S(=O)(=O)N(C)[C@H]3CCN(Cc4cc(C(=N)N)ccc4N)C3=O)cc2c1" ?
0.004

Consider next the compound "N=C(N)c1cccc(C[C@H](NS(=O)(=O)c2ccc3ccccc3c2)C(=O)N2CCC[C@H]2C(=O)O)c1" in the same way.
130

Would you mind doing "COc1ccc(N2CCC(CNC(=O)c3ccc(OC)c(OCCc4ccc(Cl)cc4Cl)c3)CC2)cn1" as well?
10

Try this compound too: "N=C(N)c1ccc(O)c(/C=C/CNC(=O)c2ccc(-c3cccc(S(N)(=O)=O)c3)cc2)c1"
0.009

###

Collected Ki for Coagulation factor X (Homo sapiens, UniProt P00742) across several studies; molecules listed below.

// returns reported Ki for input "CC(C)c1ccc(CCN(CC(=O)O)S(=O)(=O)c2cc(/C(N)=N/O)ccc2O)cc1"
7000 nM

Moving on to "CCc1nc2ccc(OC3CCN(C(C)=N)CC3)cc2n1Cc1ccc2ccc(C(=N)N)cc2c1"
0.087 nM

Same lookup for "CC(C)Nc1nc(Cl)c2n(c1=O)[C@H](C(=O)NCc1ccc(C(=N)N)cc1)CC2(C)C" , please.
> 15000 nM

Try this molecule too: "CNCc1ccccc1-c1ccc(N2CCc3c(C(F)(F)F)nn(-c4ccc(OC)cc4)c3C2=O)cc1"
0.28 nM

Next record, please: CC(C)(CN(CC(=O)NC(CCCNC=N)B(O)O)C(=O)CCc1ccccc1)c1ccccc1 (centres undefined)
80 nM

How about "C[C@@H](C(=O)N1CCOCC1)N1CC[C@H](NS(=O)(=O)c2ncc(-c3ccc(Cl)s3)s2)C1=O" ?
2 nM

// repeat for "CN(CC(=O)N[C@@H](CCCCN)B(O)O)C(=O)c1ccccc1Cc1ccccc1" and report
100 nM

Note, next up: "COc1cccc(Oc2nc(Oc3cccc(C(=N)N)c3)c(F)c(C)c2F)c1"
1350 nM

"O=C(CN1CCN(S(=O)(=O)c2cc3ccc(Cl)cc3s2)CC1=O)Nc1ccccc1" ?
> 1200 nM

###

Coagulation factor X (Homo sapiens) pKi, compiled from various sources.
pKi: −log10 of the molar value.
Entries are sorted into classes by pKi as follows: I (below 5), II (5 to below 7), III (7 or more)

Band of "Cc1cc2nc([C@@H](CNC(=O)c3ccc(-n4cnnc4)cc3Cl)c3ccccc3)[nH]c2cc1C" ?
II

For CCOC(=O)C(=O)N(Cc1cccc(F)c1)c1ccc2c(c1)N(C)CC(C)(COc1ccc(C(=N)N)cc1)O2 (centres undefined) then?
II

Likewise for "CC(C)[C@H](NCc1ccc(C(=N)N)cc1)C(=O)[C@@H](CCCNC(=N)N)NS(=O)(=O)Cc1ccccc1" ?
III

Repeat with CCOc1ccc(-c2cccc(S(=O)(=O)NC(Cc3cccc(C(=N)N)c3)C(=O)N3CCC(CCN)CC3)c2)cc1 (racemic)
II

// same read-out, input: "COC(=O)Nc1ccc(-c2cc([C@H](Cc3ccccc3)NC(=O)/C=C/c3cc(Cl)ccc3-n3cnnn3)c(Cl)nn2)cc1"
II

"N=C(N)NCCCC1CCN(C(=O)[C@H](Cc2cccc(C(=N)N)c2)NS(=O)(=O)c2ccc3ccccc3c2)CC1" , same question.
I

Consider next the compound CCOC(=O)CN(Cc1ccc(F)cc1)c1ccc2c(c1)N(C)CC(C)(COc1ccc(C(=N)N)cc1)O2 (centres undefined) in the same way.
II

Same for "CC(C)N1CCC(NC(=O)c2cc3ccccc3n2CC(=O)Nc2ccccc2)CC1"
II

Then what about the compound "COc1ccc(-n2nc(C(F)(F)F)cc2C(=O)NC2CCN(c3ccccc3CN3CCCC3)CC2)cc1" ?
III

// next record "N=C(N)c1ccc(CNC(=O)CNC(=O)[C@@H](CO)NS(=O)(=O)/C=C/c2ccccc2)cc1"
I

Entry to check: "CC(C)c1cc(C(C)C)c(S(=O)(=O)N[C@@H](Cc2cccc(C(=N)N)c2)C(=O)N2CCC[C@H](C(=O)NCc3ccccc3)C2)c(C(C)C)c1"
II

Subsequent entry: "COc1ccc(-n2nc(C(F)(F)F)c3c2C(=O)N(c2ccc(NC(C)=O)cc2)CC3)cc1"
II

Now this one: "CN(CC(=O)N[C@@H](CCCCN)B(O)O)C(=O)c1ccccc1Sc1ccccc1C#N"
III

Do the same for "N=C(N)NCCC(=O)N1CCN(C(=O)[C@H](Cc2cccc(C(=N)N)c2)NS(=O)(=O)c2cccc3ccccc23)CC1" please
II

Try the compound "NCc1ccc(CNC(=O)[C@@H]2Cc3ccc(cc3)NC(=O)CCN3CCN(CCC(=O)Nc4ccc(cc4)C[C@@H](NS(=O)(=O)NC4CCCCC4)C(=O)N2)CC3)cc1"
I

Then this compound: "N=C(N)c1ccc(OC[C@H]2COc3ccc(N(Cc4ccccc4)C(=O)C(=O)O)cc3O2)cc1"
II

Queued: CCCCS(=O)(=O)Nc1ccc(C)n(CC(=O)NC2CCc3nc(N)sc3C2)c1=O (centres undefined)
I

Same question, "COc1ccc(-n2nc(C(F)(F)F)c3c2C(=O)N(c2ccc(N(C)C)cc2)CC3)cc1" this time
III

Same read-out for "Cc1cc(C(=O)Nc2ccc(C(=N)N(C)C)cc2F)n(-c2cc3ccccc3cc2S(C)(=O)=O)n1" ?
III

Also "CN(C)Cc1ccccc1-c1ccc(CC(=O)c2cc(C(F)(F)F)nn2-c2ccc3onc(N)c3c2)c(F)c1" ?
III

// same read-out, input: "O=C(NCc1cccc(-c2cccc(-c3cc4c[nH]ccc-4n3)c2O)c1)[C@@H](O)Cc1ccccc1"
I

Further, for "COC(=O)CN(CCCc1ccc(-c2ccccc2S(N)(=O)=O)cc1)c1cccc(C(=N)N)c1" ?
III

Item: CN(C)CCNC(=O)C(Oc1cccc2sc(C(=N)N)cc12)c1ccccc1 (centres undefined)
II

Queued: "N=C(N)c1cccc(-n2nncc2C(=O)Nc2ccc(-c3ccccc3S(N)(=O)=O)cc2)c1.O=C(O)C(F)(F)F"
III

Quick one: "COCc1onc(-c2cccc(C(=N)N)c2)c1C(=O)Nc1ccc(-c2ccccc2S(N)(=O)=O)cc1"
III

# repeat for "N=C(N)c1ccc2ccc(CN(CCc3ccc(F)cc3)C(=O)c3cccc4ccccc34)cc2c1"
III

How about this compound: "N=C(N)c1cccc(CN2CC[C@H](NS(=O)(=O)c3ccc4ccccc4c3)C2)c1"
I

What about N=C(N)c1ccc(/C=C2/CC(c3ccccc3)C/C(=C/c3ccc(C(=N)N)cc3)C2=O)cc1 (centres undefined) ?
III

Could you do the same for "O=C(CN1CCN(S(=O)(=O)c2cc3ccc(Cl)cc3s2)CC1=O)Nc1ccncc1" , please?
II
